Taken from patent US20230218632A1.

subject_of_test: TRAP1 enzyme (Homo sapiens, UniProt Q12931)
Sequence (Q12931 60-704): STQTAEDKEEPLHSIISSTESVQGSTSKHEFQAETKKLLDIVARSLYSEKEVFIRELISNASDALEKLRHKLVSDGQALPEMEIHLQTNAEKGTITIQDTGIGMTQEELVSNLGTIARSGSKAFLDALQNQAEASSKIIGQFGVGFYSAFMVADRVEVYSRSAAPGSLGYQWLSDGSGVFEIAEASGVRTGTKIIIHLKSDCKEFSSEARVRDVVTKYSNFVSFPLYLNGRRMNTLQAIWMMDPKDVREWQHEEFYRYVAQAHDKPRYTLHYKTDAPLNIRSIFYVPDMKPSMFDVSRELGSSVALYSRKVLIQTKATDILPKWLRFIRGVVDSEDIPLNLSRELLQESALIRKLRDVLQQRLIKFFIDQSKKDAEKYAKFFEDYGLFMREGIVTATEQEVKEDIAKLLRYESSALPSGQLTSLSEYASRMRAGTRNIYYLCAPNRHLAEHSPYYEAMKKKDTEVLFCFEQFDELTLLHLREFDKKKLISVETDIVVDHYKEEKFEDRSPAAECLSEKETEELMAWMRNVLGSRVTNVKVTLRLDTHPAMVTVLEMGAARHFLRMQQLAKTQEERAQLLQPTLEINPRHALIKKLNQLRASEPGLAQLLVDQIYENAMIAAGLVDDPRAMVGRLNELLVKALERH
test_method_notes: ADP Glo assay (ATPase activity of TRAP1)
Format: biochemical
experimental_parameters: maximal percent activation; read-out: ADP GLO DRC: Mean Emax
Experimental: Potency of test compounds to modulate the ATPase activity of TRAP1 enzyme was evaluated using ADP Glo assay. The assay is based on quantification of the ADP generated from ATP in the ATPase reaction. […] Second, the Kinase Detection Reagent is added to simultaneously convert ADP to ATP and allow the newly synthesized ATP to be measured using a luciferase/luciferin reaction. […]
# Emax per entry

compound	Emax
CC(C)n1cncc1C(=O)Nc1ccc2c(c1)S(=O)(=O)N(c1ccc(C(F)(F)F)cc1)CCO2 [Compound 2439]	150 to 200%
COc1cnccc1C(=O)Nc1ccc2c(c1)S(=O)(=O)N(c1ccc(C(F)(F)F)cc1)CCO2 [Compound 2209]	129 to 149%
Cc1ccnc(C(=O)Nc2ccc3c(c2)S(=O)(=O)N(c2ccc(C(F)(F)F)cc2)CCO3)n1 [Compound 2261]	150 to 200%
Cc1ncccc1C(=O)Nc1ccc2c(c1)S(=O)(=O)N(c1ccc(C(F)(F)F)cc1)CCO2 [Compound 2286]	> 200%
Cc1ncc(C(=O)Nc2ccc3c(c2)S(=O)(=O)N(c2ccc(C(F)(F)F)cc2)CCO3)c(C)n1 [Compound 2236]	150 to 200%
Cc1ncnc(C)c1C(=O)Nc1ccc2c(c1)S(=O)(=O)N(c1ccc(C(F)(F)F)cc1)CCO2 [Compound 2337]	150 to 200%
Cc1ccc(N2CCOc3ccc(NC(=O)c4ncoc4C)cc3S2(=O)=O)cc1 [Compound 2362]	150 to 200%
Cc1ncoc1C(=O)Nc1ccc2c(c1)S(=O)(=O)N(c1ccc(C(F)(F)F)cc1)CCO2 [Compound 1190]	150 to 200%
Cn1ccc(C(=O)Nc2ccc3c(c2)S(=O)(=O)N(c2ccc(C(F)(F)F)cc2)CCO3)n1 [Compound 2294]	150 to 200%
O=C(Nc1ccc2c(c1)S(=O)(=O)N(c1ccc(C(F)(F)F)cc1)CCO2)c1c(F)cncc1F [Compound 2198]	150 to 200%
Cc1cc(C(=O)Nc2ccc3c(c2)S(=O)(=O)N(c2ccc(C(F)(F)F)cc2)CCO3)cc(C)n1 [Compound 2510]	150 to 200%
CCn1cncc1C(=O)Nc1ccc2c(c1)S(=O)(=O)N(c1ccc(C(F)(F)F)cc1)CCO2 [Compound 2213]	150 to 200%
O=C(Nc1ccc2c(c1)S(=O)(=O)N(c1ccc(C(F)(F)F)cc1)CCO2)c1ccncn1 [Compound 2175]	129 to 149%
CN1CCc2scc(C(=O)Nc3ccc4c(c3)S(=O)(=O)N(c3ccc(C(F)(F)F)cc3)CCO4)c2C1 [Compound 2472]	150 to 200%
Cc1nc(C)c(C(=O)Nc2ccc3c(c2)S(=O)(=O)N(c2ccc(C(F)(F)F)cc2)CCO3)s1 [Compound 2248]	150 to 200%
Cc1ncoc1C(=O)Nc1ccc2c(c1)S(=O)(=O)N(c1ccc(C(F)F)cc1)CCO2 [Compound 2443]	150 to 200%
Cn1cccc(C(=O)Nc2cnc3c(c2)S(=O)(=O)N(c2ccc(C(F)(F)F)cc2)CCO3)c1=O [Compound 2462]	150 to 200%
O=C(Nc1ccc2c(c1)S(=O)(=O)N(c1ccc(C(F)(F)F)cc1)CCO2)c1cc(=O)cc[nH]1 [Compound 2473]	> 200%
Cc1cnncc1C(=O)Nc1ccc2c(c1)S(=O)(=O)N(c1ccc(C(F)(F)F)cc1)CCO2 [Compound 2275]	150 to 200%
O=C(Nc1ccc2c(c1)S(=O)(=O)N(c1ccc(C(F)(F)F)cc1)CCO2)C1CCCN1 (stereo not drawn) [Compound 2410]	150 to 200%
Cc1ocnc1C(=O)Nc1ccc2c(c1)S(=O)(=O)N(c1ccc(C#N)cc1)CCO2 [Compound 2377]	150 to 200%

* * *

subject_of_test: TRAP1 enzyme (Homo sapiens, UniProt Q12931)
test_method_notes: ADP Glo assay (ATPase activity of TRAP1)
Assay type: biochemical
experimental_parameters: maximal percent activation; read-out: ADP GLO DRC: Mean Emax

structure_string	Emax
Cc1c(C(=O)Nc2ccc3c(c2)S(=O)(=O)N(c2ccc(C(F)(F)F)cc2)CCO3)cnn1C	> 200%
Cn1c(C(=O)Nc2ccc3c(c2)S(=O)(=O)N(c2ccc(C(F)(F)F)cc2)CCO3)cccc1=O	150 to 200%
Cn1ccc(=O)cc1C(=O)Nc1ccc2c(c1)S(=O)(=O)N(c1ccc(C(F)(F)F)cc1)CCO2	> 200%
Cc1nc(C(=O)Nc2ccc3c(c2)S(=O)(=O)N(c2ccc(C(F)(F)F)cc2)CCO3)co1	150 to 200%

* * *

# pEC50 per entry
subject_of_test: UniProt:Q12931
test_method_notes: ADP Glo assay (ATPase activity of TRAP1)
experimental_parameters: 150 nM Trap1, 20 µM ATP, concentration for half maximal activation; read-out: ADP GLO DRC: GeoMean EC50
pEC50: −log10 of the molar value.
readout_label: pEC50

molecule	readout_label	result
Cc1nc(C)c(C(=O)Nc2ccc3c(c2)S(=O)(=O)N(c2ccc(C(F)(F)F)cc2)CCO3)o1 [Compound 1974]	pEC50	4.52 to 4.70
Cc1ccc(C(=O)Nc2ccc3c(c2)S(=O)(=O)N(c2ccc(C(F)(F)F)cc2)CCO3)cn1 [Compound 2174]	pEC50	4.52 to 4.70
Cn1c(C(=O)Nc2ccc3c(c2)S(=O)(=O)N(c2ccc(C(F)(F)F)cc2)CCO3)cnc1O [Compound 2351]	pEC50	4.00 to 4.52
Cn1cnc(C(=O)Nc2ccc3c(c2)S(=O)(=O)N(c2ccc(C(F)(F)F)cc2)CCO3)c1 [Compound 2249]	pEC50	4.00 to 4.52
CN1CCCC1C(=O)Nc1ccc2c(c1)S(=O)(=O)N(c1ccc(C(F)(F)F)cc1)CCO2 (stereo not drawn) [Compound 2417]	pEC50	4.00 to 4.52
Cc1ccc(N2CCOc3ccc(NC(=O)c4ncoc4C)cc3S2(=O)=O)cc1 [Compound 2362]	pEC50	4.00 to 4.52
Cc1ccnc(C(=O)Nc2ccc3c(c2)S(=O)(=O)N(c2ccc(C(F)(F)F)cc2)CCO3)n1 [Compound 2261]	pEC50	4.00 to 4.52
Cn1cccc(C(=O)Nc2ccc3c(c2)S(=O)(=O)N(c2ccc(C(F)(F)F)cc2)CCO3)c1=O [Compound 2268]	pEC50	> 4.70
CC(C)c1ncsc1C(=O)Nc1ccc2c(c1)S(=O)(=O)N(c1ccc(C(F)(F)F)cc1)CCO2 [Compound 2080]	pEC50	4.52 to 4.70
O=C(Nc1ccc2c(c1)S(=O)(=O)N(c1ccc(C(F)(F)F)cc1)CCO2)c1cnn2c1CCC2 [Compound 2179]	pEC50	4.52 to 4.70
O=C(Nc1ccc2c(c1)S(=O)(=O)N(c1ccc(C(F)(F)F)cc1)CCO2)c1cccnc1 [Compound 2240]	pEC50	4.00 to 4.52
Cc1c(C(=O)Nc2ccc3c(c2)S(=O)(=O)N(c2ccc(C(F)(F)F)cc2)CCO3)cnn1C [Compound 2295]	pEC50	4.00 to 4.52
CCc1nn(C)cc1C(=O)Nc1ccc2c(c1)S(=O)(=O)N(c1ccc(C(F)(F)F)cc1)CCO2 [Compound 2265]	pEC50	> 4.70
O=C(Nc1ccc2c(c1)S(=O)(=O)N(c1ccc(C(F)(F)F)cc1)CCO2)c1csc(CO)n1 [Compound 2305]	pEC50	4.52 to 4.70
O=C(Nc1ccc2c(c1)S(=O)(=O)N(c1ccc(C(F)(F)F)cc1)CCO2)c1cocn1 [Compound 1976]	pEC50	4.00 to 4.52
Cc1nc(C)c(C(=O)Nc2ccc3c(c2)S(=O)(=O)N(c2ccc(C(F)(F)F)cc2)CCO3)s1 [Compound 2248]	pEC50	4.00 to 4.52
COc1cnccc1C(=O)Nc1ccc2c(c1)S(=O)(=O)N(c1ccc(C(F)(F)F)cc1)CCO2 [Compound 2209]	pEC50	4.52 to 4.70
CCn1cncc1C(=O)Nc1ccc2c(c1)S(=O)(=O)N(c1ccc(C(F)(F)F)cc1)CCO2 [Compound 2213]	pEC50	> 4.70
Cc1ncoc1C(=O)Nc1ccc2c(c1)S(=O)(=O)N(c1ccc(Cl)cc1)CCO2 [Compound 1210]	pEC50	4.00 to 4.52
Cc1ncc(C(=O)Nc2ccc3c(c2)S(=O)(=O)N(c2ccc(C(F)(F)F)cc2)CCO3)cn1 [Compound 2200]	pEC50	4.00 to 4.52
Cc1cc(C(=O)Nc2ccc3c(c2)S(=O)(=O)N(c2ccc(C(F)(F)F)cc2)CCO3)n(C)n1 [Compound 2339]	pEC50	> 4.70
Cc1cnncc1C(=O)Nc1ccc2c(c1)S(=O)(=O)N(c1ccc(C(F)(F)F)cc1)CCO2 [Compound 2275]	pEC50	4.00 to 4.52
Cc1ocnc1C(=O)Nc1ccc2c(c1)S(=O)(=O)N(c1ccccc1)CCO2 [Compound 2135]	pEC50	4.00 to 4.52
O=C(Nc1ccc2c(c1)S(=O)(=O)N(c1ccc(Br)cc1)CCO2)c1cnc(-c2ccccc2)[nH]1 [Compound 1331]	pEC50	> 4.70
Cc1cncc(C(=O)Nc2ccc3c(c2)S(=O)(=O)N(c2ccc(C(F)(F)F)cc2)CCO3)c1 [Compound 2191]	pEC50	> 4.70
O=C(Nc1ccc2c(c1)S(=O)(=O)N(c1ccc(C(F)(F)F)cc1)CCO2)C1CCCN1 (stereo not drawn) [Compound 2410]	pEC50	4.00 to 4.52
Cc1cc(C(=O)Nc2cnc3c(c2)S(=O)(=O)N(c2ccc(C(F)(F)F)cc2)CCO3)cc(C)n1 [Compound 2515]	pEC50	4.52 to 4.70
Cc1ncoc1C(=O)Nc1ccc2c(c1)S(=O)(=O)N(c1ccc(C(F)(F)F)cc1)CCC2 [Compound 2458]	pEC50	> 4.70
O=C(Nc1ccc2c(c1)S(=O)(=O)N(c1ccc(C(F)(F)F)cc1)CCO2)c1cncn1CCO [Compound 2514]	pEC50	4.52 to 4.70
Cn1c(C(=O)Nc2ccc3c(c2)S(=O)(=O)N(c2ccc(C(F)(F)F)cc2)CCO3)cccc1=O [Compound 2221]	pEC50	4.00 to 4.52
